- measurement-protocol: Inhibition of bovine thymus p56 LCK activity by competitive inhibition assay
- Parameters: species or system Bos taurus
assay-endpoint: Ki (µM)
Write the number in µM without appending the unit.

input: Fill blank: measured Ki of the compound Cc1cc(O)c2c(c1)C(=O)c1cc(O)cc(O)c1C2=O [EMODIN] is ____.
output: 13

Data credit: ChEMBL document CHEMBL1159034
